For each of the compounds below, state its pIC50.
Biological target: hFAAH (Homo sapiens, UniProt O00519)
Sequence (O00519 1-579): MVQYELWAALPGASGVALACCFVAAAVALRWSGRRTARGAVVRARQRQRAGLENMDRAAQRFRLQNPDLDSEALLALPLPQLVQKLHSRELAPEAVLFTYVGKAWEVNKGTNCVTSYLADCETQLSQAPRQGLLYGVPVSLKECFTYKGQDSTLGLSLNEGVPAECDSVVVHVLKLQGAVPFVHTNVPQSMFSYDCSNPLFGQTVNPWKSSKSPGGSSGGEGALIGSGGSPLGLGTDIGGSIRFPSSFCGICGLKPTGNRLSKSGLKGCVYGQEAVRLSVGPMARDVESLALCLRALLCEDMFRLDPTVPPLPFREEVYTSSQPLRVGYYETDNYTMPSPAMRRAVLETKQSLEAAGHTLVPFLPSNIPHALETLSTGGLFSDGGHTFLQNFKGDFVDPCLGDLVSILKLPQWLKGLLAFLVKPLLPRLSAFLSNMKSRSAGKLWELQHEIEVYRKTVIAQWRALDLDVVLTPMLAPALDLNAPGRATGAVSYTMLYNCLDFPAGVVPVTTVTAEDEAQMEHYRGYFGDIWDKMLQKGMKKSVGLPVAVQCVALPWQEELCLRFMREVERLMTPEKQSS
pIC50: −log10 of the molar value.

Field: example entries. Status: answers known.
O=C(Oc1ccc([N+](=O)[O-])cc1)N1CCC(C(O)(c2ccc3c(c2)OCO3)c2ccc3c(c2)OCO3)CC1 [JZL184, reference compound] | < 4.30
O=C(OC(C(F)(F)F)C(F)(F)F)N1CCN(Cc2cccc(Oc3ccccc3)c2)CC1 | 4.69
O=C(OC(C(F)(F)F)C(F)(F)F)N1CCC(C(O)(c2ccc3c(c2)OCO3)c2ccc3c(c2)OCO3)CC1 | < 4.30

Shifting focus to the compound that follows.
Q) Lab note: need pIC50 for CN(Cc1cccc(-c2ccncc2)c1)C(=O)OC(C(F)(F)F)C(F)(F)F on hFAAH (Homo sapiens, UniProt O00519), anyone have it?
A) < 4.30
